# System: Raji cell derived from human Burkitt lymphoma
# assay-name: Inhibitory activity against production of triacylglycerol in human-derived cell (Raji)
# Type: cell-based
# applied-conditions: 0.5 h, [1-14C]oleic acid, 37° C., 30 minutes, read-out: concentration which inhibited 50% of production of triacylglycerol
measurement-label: IC50 (µM)
Answer in µM, number only, no unit symbol.

Query (compound): CCC(C)CC(C)CC(C)C(O[C@@H]1OC(CO)[C@@H](O)C(O)C1O)C(C)/C=C(\C)C(O)C(C)/C=C(\C)C(O)C(C)/C=C(\C)C(=O)OC (stereo partly shown) [roselipin R-4] ; field requested: IC50
200

Query (compound): CCC(C)CC(C)CC(C)C(O)C(C)/C=C(\C)C(O)C(C)/C=C(\C)C(O)C(C)/C=C(\C)C(=O)OC[C@@H](O)[C@H](O)[C@H](O)CO (stereo partly shown) [roselipin R-3B] ; field requested: IC50
10

Query (compound): CCC(C)CC(C)CC(C)C(O)C(C)/C=C(\C)C(O)C(C)/C=C(\C)C(O)C(C)/C=C(\C)C(=O)OC[C@@H](O)[C@@H](O)[C@H](O)CO (stereo partly shown) [roselipin R-3A] ; field requested: IC50
11

Now for the compound whose IC50 we want.
Query (compound): CCC(C)CC(C)CC(C)C(O)C(C)/C=C(\C)C(O)C(C)/C=C(\C)C(OC)C(C)/C=C(\C)C(=O)OC (stereo not shown) [roselipin R-5] ; field requested: IC50
250
